Where do these numbers come from? They come from ChEMBL document CHEMBL4002599.

- ASSAY PROCEDURE: Half-life in Sprague-Dawley rat at 1 mg/kg, iv administered as bolus dose by LC-MS/MS method
- Format: ADME, organism-based
- CONDITION DETAILS: in vivo
RESULT TYPE: half-life (h)

>>> print(df.to_string())
                                        smi  observed_measurement
0  CN(C)CCn1cc(-c2ccn3c(-c4ccc(C(N)=O)c(OCc5cccc(F)c5)c4)cnc3c2)cn1                  1.72

A: CN(C)CCn1cc(-c2ccn3c(-c4ccc(C(N)=O)c(OCc5ccccc5)c4)cnc3c2)cn1
B: CN(C)CCn1cc(-c2ccn3c(-c4ccc(C(N)=O)c(OCc5cccc(C(F)(F)F)c5)c4)cnc3c2)cn1
Which entry shows the lesser value of half-life here, A or B ? // output: label of the selected item
B

---

- TARGET OF ASSAY: Ribosomal protein S6 kinase alpha-1 (Homo sapiens, UniProt Q15418)
- Sequence (Q15418 whole entry): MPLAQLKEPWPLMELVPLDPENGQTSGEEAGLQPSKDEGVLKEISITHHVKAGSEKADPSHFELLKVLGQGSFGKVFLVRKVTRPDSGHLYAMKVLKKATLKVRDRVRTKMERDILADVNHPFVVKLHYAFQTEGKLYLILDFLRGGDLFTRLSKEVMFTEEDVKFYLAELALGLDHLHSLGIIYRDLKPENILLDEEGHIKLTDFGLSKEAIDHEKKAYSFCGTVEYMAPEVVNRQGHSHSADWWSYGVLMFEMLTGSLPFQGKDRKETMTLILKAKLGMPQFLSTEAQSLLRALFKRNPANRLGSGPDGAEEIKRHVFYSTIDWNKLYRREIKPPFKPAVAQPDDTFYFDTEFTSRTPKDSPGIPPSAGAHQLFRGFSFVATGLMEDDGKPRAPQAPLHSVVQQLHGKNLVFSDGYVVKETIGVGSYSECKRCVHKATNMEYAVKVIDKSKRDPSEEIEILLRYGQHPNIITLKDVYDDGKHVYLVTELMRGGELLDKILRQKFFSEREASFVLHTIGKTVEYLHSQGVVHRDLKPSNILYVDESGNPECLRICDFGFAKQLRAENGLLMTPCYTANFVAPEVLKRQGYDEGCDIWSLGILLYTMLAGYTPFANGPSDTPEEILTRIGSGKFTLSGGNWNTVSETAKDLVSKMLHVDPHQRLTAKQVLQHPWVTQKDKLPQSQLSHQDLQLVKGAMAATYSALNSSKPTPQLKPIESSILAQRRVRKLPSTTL
RESULT TYPE: IC50 (nM)
Provide the reading as a plain figure in nM.

Request the reported IC50 associated with "CN(C)CCn1cc(-c2ccn3c(-c4ccc(C(N)=O)c(OCc5cccc(F)c5)c4)cnc3c2)cn1"
5.4

---

- TARGET OF ASSAY: Mitogen-activated protein kinase 14 (Homo sapiens)
- Sequence (Q16539 whole entry): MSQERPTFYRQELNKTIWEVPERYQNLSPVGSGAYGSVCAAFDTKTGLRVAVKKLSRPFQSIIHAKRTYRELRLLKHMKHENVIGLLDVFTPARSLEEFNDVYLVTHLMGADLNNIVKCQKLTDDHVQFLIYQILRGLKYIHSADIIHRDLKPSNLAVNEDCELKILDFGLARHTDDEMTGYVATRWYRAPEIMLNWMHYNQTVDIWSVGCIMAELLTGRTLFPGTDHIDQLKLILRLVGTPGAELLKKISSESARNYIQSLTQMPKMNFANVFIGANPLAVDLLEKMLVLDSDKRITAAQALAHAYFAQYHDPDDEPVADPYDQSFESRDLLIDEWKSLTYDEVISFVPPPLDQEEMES
- ASSAY PROCEDURE: Inhibition of P38alpha (unknown origin)
pIC50: −log10 of the molar value.
RESULT TYPE: pIC50

Param item = "CN(C)CCn1cc(-c2ccn3c(-c4ccc(C(N)=O)c(OCc5cccc(F)c5)c4)cnc3c2)cn1" ; retrieve measured pIC50.
< 5.00

---

- ASSAY PROCEDURE: Volume of distribution at steady state in Sprague-Dawley rat at 1 mg/kg, iv administered as bolus dose by LC-MS/MS method
- Type: ADME, organism-based
- CONDITION DETAILS: in vivo, read-out: Vdss
RESULT TYPE: Vd (L/kg)

>>> print(df.to_string())
                                        smi  unit_label  observed_measurement
0  CN(C)CCn1cc(-c2ccn3c(-c4ccc(C(N)=O)c(OCc5ccccc5)c4)cnc3c2)cn1        L/kg                  4.06

I: CN(C)CCn1cc(-c2ccn3c(-c4ccc(C(N)=O)c(OCc5cccc(C(F)(F)F)c5)c4)cnc3c2)cn1
II: CN(C)CCn1cc(-c2ccn3c(-c4ccc(C(N)=O)c(OCc5cccc(F)c5)c4)cnc3c2)cn1
Would you mind telling me which has the lower recorded Vd between I and II ? Could you answer with the label of the item you picked?
II
(II: 2.53 L/kg, I: 5.08 L/kg)

---

- TARGET OF ASSAY: Dual specificity tyrosine-phosphorylation-regulated kinase 1A (Homo sapiens, UniProt Q13627)
RESULT TYPE: pIC50
Value format note: pIC50 is -log10 of concentration (mol/L); just state the number.

Param item = "CN(C)CCn1cc(-c2ccn3c(-c4ccc(C(N)=O)c(OCc5cccc(F)c5)c4)cnc3c2)cn1" ; retrieve measured pIC50.
8.19

---

- ASSAY PROCEDURE: MRT (0 to t) in Sprague-Dawley rat at 1 mg/kg, iv administered as bolus dose by LC-MS/MS method
- Format: ADME, organism-based
- CONDITION DETAILS: in vivo
RESULT TYPE: MRT last (h)

                                        smi  observed_measurement
0  CN(C)CCn1cc(-c2ccn3c(-c4ccc(C(N)=O)c(OCc5ccccc5)c4)cnc3c2)cn1                  1.68
1  CN(C)CCn1cc(-c2ccn3c(-c4ccc(C(N)=O)c(OCc5cccc(F)c5)c4)cnc3c2)cn1                   1.3
2  CN(C)CCn1cc(-c2ccn3c(-c4ccc(C(N)=O)c(OCc5cccc(C(F)(F)F)c5)c4)cnc3c2)cn1                  1.38
